tested on: CDC2L1; construct: gene CDK11B; settings: concentration: 1 μM, replicates: in singlicate; n = 1;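 also: KINOMEscan kinase panel screen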
Parameter threshold = 5%. Response is criterion met when %Inh meets or exceeds it, else criterion not met.

Examples with answers:
CC(C)(C)c1ccc(C(=O)Nc2cn3cc(Cl)ccc3n2)cc1 = criterion not met
O=C(Nc1ccc2c(c1)OCO2)NC1CCN(c2ccnc(Nc3ccc(F)cc3)n2)C1 (stereo not drawn) [GSK1379724] = criterion not met
O=c1cc(N2CCOCC2)nc2n(Cc3cccc(Cl)c3Cl)ccn12 [GSK2286295] = criterion met

Ask: Item Cc1ccc(-c2cc(-c3c[nH]nc3-c3ccccn3)ccn2)cc1 [GW684088] with %Inh of 5% or above?
Result: criterion not met

Ask: Let us now turn to COc1ccc(CNC(=O)NC2CCN(c3ccnc(Nc4cc(OC)c(OC)c(OC)c4)n3)C2)cc1 (stereo not drawn) [GSK1379748]
Result: criterion not met

Reference for the values: paper PMC5540273
